Just for reference, ChEMBL document CHEMBL5131414 is where these values come from.

# key: entry, value: selectivity ratio
Assay: Therapeutic index, ratio of LD50 for toxicity in mouse to HD50 for anesthetic activity in mouse
Format: organism-based
Settings: in vivo, read-out: TI
// print number alone

Output selectivity ratio of `CCCOC(=O)Cc1ccc(OCC(=O)N2CCN(c3cccc(C(F)(F)F)c3)CC2)c(OCC)c1` 5.2

Output selectivity ratio of `CCOc1cc(CC(=O)OC(C)C)ccc1OCC(=O)N1CCN(c2cccc(C(F)(F)F)c2)CC1` 5.1

Output selectivity ratio of `COc1cc(CC(=O)OCC(F)(F)F)ccc1OCC(=O)N1CCN(c2ccccc2)CC1` 6.5

Output selectivity ratio of `CCOc1cc(CC(=O)OC(C)C)ccc1OCC(=O)N1CCN(c2cccc(C)c2C)CC1` 6.4

Output selectivity ratio of `CCOC(=O)Cc1ccc(OCC(=O)N2CCN(c3ccccc3)CC2)c(OCC)c1` 6.8
